Origin of measurements: patent US12577213B2

# experimental.details: Liver microsomes stability
# Type: in vitro ADME, human
# condition.summary: human, human liver microsomes, as repeated in Table 4; read-out: T½ of HLM (in vitro)
Note to self: use true (1) only for half-life at 1 μM readings below 1 h; a reading exactly at 1 h still gets false (0).

{"compound": "COc1cc(C(=O)Nc2cc3c(cc2Oc2cc(C)cc(C)c2)C(=O)N[C@@H](CC(=O)N(C)C)C(=O)N3)c(Br)c(OC)c1OC [d, reference compound]", "answer.label": "false (0)"}
{"compound": "[2H]C([2H])([2H])C([2H])([2H])N(C(=O)C[C@H]1C(=O)Nc2cc(NC(=O)c3cc(OC)c(OC)c(OC)c3Cl)c(Oc3cc(C)cc(C)c3)cc2C(=O)N1C)C([2H])([2H])C([2H])([2H])[2H] [Compound 12]", "answer.label": "true (1)"}
{"compound": "[2H]C([2H])([2H])Oc1cc(C(=O)Nc2cc3c(cc2Oc2cc(C)cc(C)c2)C(=O)N[C@@H](CC(=O)N(C([2H])([2H])C([2H])([2H])[2H])C([2H])([2H])C([2H])([2H])[2H])C(=O)N3)c(Cl)c(OC([2H])([2H])[2H])c1OC([2H])([2H])[2H] [Compound 6]", "answer.label": "false (0)"}
{"compound": "[2H]C([2H])([2H])Oc1cc(C(=O)Nc2cc3c(cc2Oc2cc(C)cc(C)c2)C(=O)N[C@@H](CC(=O)N(CC)CC)C(=O)N3)c(Cl)c(OC([2H])([2H])[2H])c1OC([2H])([2H])[2H] [Compound 1]", "answer.label": "true (1)"}

Let us examine a further case.
Lab note: confirm whether the reported half-life at 1 μM for this compound is below 1 h, equality not counting. compound: [2H]C([2H])([2H])Oc1cc(C(=O)Nc2cc3c(cc2Oc2cc(C)cc(C)c2)C(=O)N[C@@H](CC(=O)N(C)C)C(=O)N3)c(Br)c(OC([2H])([2H])[2H])c1OC([2H])([2H])[2H] [Compound 20]
false (0)

---

# experimental.details: Liver microsomes stability
# Format: in vitro ADME, human
# condition.summary: 1 μM compound, 1 mg/mL human liver microsomes, 1 mM NADPH
measured.metric: log10(microsomal CLint at 1 μM) (log10 of the value in µL/min/mg)
Record value = log10 of microsomal CLint at 1 μM given in µL/min/mg.

// known answers, use as guide
{"compound": "CCN(CC)C(=O)C[C@H]1C(=O)Nc2cc(NC(=O)c3cc(OC)c(OC)c(OC)c3Br)c(Oc3cc(C)cc(C)c3)cc2C(=O)N1C [a, reference compound]", "log10(microsomal CLint at 1 μM)": 1.80}
{"compound": "[2H]C([2H])([2H])C([2H])([2H])N(C(=O)C[C@@H]1NC(=O)c2cc(Oc3cc(C)cc(C)c3)c(NC(=O)c3cc(OC)c(OC)c(OC)c3Br)cc2NC1=O)C([2H])([2H])C([2H])([2H])[2H]", "log10(microsomal CLint at 1 μM)": 1.14}
{"compound": "[2H]C([2H])([2H])N(C(=O)C[C@H]1C(=O)Nc2cc(NC(=O)c3cc(OC)c(OC)c(OC)c3Br)c(Oc3cc(C)cc(C)c3)cc2C(=O)N1C)C([2H])([2H])[2H]", "log10(microsomal CLint at 1 μM)": 1.03}
{"compound": "[2H]C([2H])([2H])OC(=O)C[C@@H]1NC(=O)c2cc(Oc3cc(C)cc(C)c3)c(NC(=O)c3cc(OC)c(OC)c(OC)c3Cl)cc2NC1=O", "log10(microsomal CLint at 1 μM)": 0.77}
{"compound": "[2H]C([2H])([2H])Oc1cc(C(=O)Nc2cc3c(cc2Oc2cc(C)cc(C)c2)C(=O)N(C)[C@@H](CC(=O)N(C([2H])([2H])[2H])C([2H])([2H])[2H])C(=O)N3)c(Br)c(OC([2H])([2H])[2H])c1OC([2H])([2H])[2H]", "log10(microsomal CLint at 1 μM)": 1.05}

Please state log10(microsomal CLint at 1 μM) for every compound in the list that follows.
1. [2H]c1c(C)c([2H])c(Oc2cc3c(cc2NC(=O)c2cc(OC)c(OC)c(OC)c2Cl)NC(=O)[C@H](CC(=O)N(CC)CC)NC3=O)c([2H])c1C
2. [2H]C([2H])([2H])Oc1cc(C(=O)Nc2cc3c(cc2Oc2cc(C)cc(C)c2)C(=O)N(C)[C@@H](CC(=O)N(C([2H])([2H])C([2H])([2H])[2H])C([2H])([2H])C([2H])([2H])[2H])C(=O)N3)c(Br)c(OC([2H])([2H])[2H])c1OC([2H])([2H])[2H]
3. [2H]C([2H])([2H])Oc1cc(C(=O)Nc2cc3c(cc2Oc2cc(C)cc(C)c2)C(=O)N[C@@H](CC(=O)N2CCN(C)CC2)C(=O)N3)c(Br)c(OC([2H])([2H])[2H])c1OC([2H])([2H])[2H]
4. [2H]C([2H])([2H])Oc1cc(C(=O)Nc2cc3c(cc2Oc2cc(C)cc(C)c2)C(=O)N(C)[C@@H](CC(=O)N(C)OC)C(=O)N3)c(Cl)c(OC([2H])([2H])[2H])c1OC([2H])([2H])[2H]

1: 1.45; 2: 1.17; 3: 0.73; 4: 0.83

Please state log10(microsomal CLint at 1 μM) for every compound in the list that follows.
1. [2H]C([2H])([2H])Oc1cc(C(=O)Nc2cc3c(cc2Oc2cc(C)cc(C)c2)C(=O)N(C)[C@@H](CC(=O)N(C)C)C(=O)N3)c(Br)c(OC([2H])([2H])[2H])c1OC([2H])([2H])[2H]
2. [2H]C([2H])([2H])C([2H])([2H])N(C(=O)C[C@H]1C(=O)Nc2cc(NC(=O)c3cc(OC)c(OC)c(OC)c3Cl)c(Oc3cc(C)cc(C)c3)cc2C(=O)N1C)C([2H])([2H])C([2H])([2H])[2H]
3. [2H]C([2H])([2H])N(C(=O)C[C@@H]1NC(=O)c2cc(Oc3cc(C)cc(C)c3)c(NC(=O)c3cc(OC)c(OC)c(OC)c3Br)cc2NC1=O)C([2H])([2H])[2H]
4. [2H]C([2H])([2H])C([2H])([2H])N(C(=O)C[C@H]1C(=O)Nc2cc(NC(=O)c3cc(OC)c(OC)c(OC)c3Br)c(Oc3cc(C)cc(C)c3)cc2C(=O)N1C)C([2H])([2H])C([2H])([2H])[2H]
5. [2H]C([2H])([2H])Oc1cc(C(=O)Nc2cc3c(cc2Oc2cc(C)cc(C)c2)C(=O)N[C@@H](CC(=O)N(C([2H])([2H])C([2H])([2H])[2H])C([2H])([2H])C([2H])([2H])[2H])C(=O)N3)c(Cl)c(OC([2H])([2H])[2H])c1OC([2H])([2H])[2H]

1.06
1.49
0.66
1.45
0.98

Please state log10(microsomal CLint at 1 μM) for every compound in the list that follows.
1. [2H]C([2H])([2H])Oc1c(OC)cc(C(=O)Nc2cc3c(cc2Oc2cc(C)cc(C)c2)C(=O)N[C@@H](CC(=O)N(CC)CC)C(=O)N3)c(Cl)c1OC
2. CCN(CC)C(=O)C[C@@H]1NC(=O)c2cc(Oc3cc(C)cc(C)c3)c(NC(=O)c3cc(OC)c(OC)c(OC)c3Br)cc2NC1=O [b, reference compound]
3. [2H]C([2H])([2H])Oc1cc(C(=O)Nc2cc3c(cc2Oc2cc(C)cc(C)c2)C(=O)N[C@@H](CC(=O)N2CCC(F)(F)CC2)C(=O)N3)c(Cl)c(OC([2H])([2H])[2H])c1OC([2H])([2H])[2H]
4. CCN(CC)C(=O)C[C@@H]1NC(=O)c2cc(Oc3cc(C)cc(C)c3)c(NC(=O)c3cc(OC)c(OC)c(OC)c3Cl)cc2NC1=O [c, reference compound]
5. [2H]C([2H])([2H])C([2H])([2H])N(C(=O)C[C@@H]1NC(=O)c2cc(Oc3cc(C)cc(C)c3)c(NC(=O)c3cc(OC)c(OC)c(OC)c3Cl)cc2NC1=O)C([2H])([2H])C([2H])([2H])[2H]

[1.51, 1.42, 1.01, 1.42, 1.14]

---

# experimental.details: Liver microsomes stability
# Format: in vitro ADME, human
# condition.summary: human, human liver microsomes, 1 μM compound, 1 mg/mL human liver microsomes, 1 mM NADPH
Note to self: use true (1) only for microsomal CLint at 1 μM readings below 10 µL/min/mg; a reading exactly at 10 µL/min/mg still gets false (0).

Past entries and their recorded results:
{"compound": "[2H]C([2H])([2H])Oc1cc(C(=O)Nc2cc3c(cc2Oc2cc(C)cc(C)c2)C(=O)N(C)[C@@H](CC(=O)N2CCN(C)CC2)C(=O)N3)c(Br)c(OC([2H])([2H])[2H])c1OC([2H])([2H])[2H] [Compound 28]", "answer.label": "false (0)"}
{"compound": "[2H]C([2H])([2H])Oc1cc(C(=O)Nc2cc3c(cc2Oc2cc(C)cc(C)c2)C(=O)N[C@@H](CC(=O)C(C)(C)P(=O)(OC)OC)C(=O)N3)c(Br)c(OC([2H])([2H])[2H])c1OC([2H])([2H])[2H] [Compound 26]", "answer.label": "true (1)"}
{"compound": "[2H]C([2H])([2H])Oc1cc(C(=O)Nc2cc3c(cc2Oc2cc(C)cc(C)c2)C(=O)N[C@@H](CC(=O)N(C)O)C(=O)N3)c(Br)c(OC([2H])([2H])[2H])c1OC([2H])([2H])[2H] [Compound 31]", "answer.label": "false (0)"}

Lab note: confirm whether the reported microsomal CLint at 1 μM for this compound is below 10 µL/min/mg, equality not counting. compound: [2H]C([2H])([2H])Oc1cc(C(=O)Nc2cc3c(cc2Oc2cc(C)cc(C)c2)C(=O)N(C)[C@@H](CC(=O)N(C)OC)C(=O)N3)c(Br)c(OC([2H])([2H])[2H])c1OC([2H])([2H])[2H] [Compound 32]
false (0)

Lab note: confirm whether the reported microsomal CLint at 1 μM for this compound is below 10 µL/min/mg, equality not counting. compound: [2H]C([2H])([2H])Oc1cc(C(=O)Nc2cc3c(cc2Oc2cc(C)cc(C)c2)C(=O)N(C)[C@@H](CC(=O)N(OC([2H])([2H])[2H])C([2H])([2H])[2H])C(=O)N3)c(Br)c(OC([2H])([2H])[2H])c1OC([2H])([2H])[2H] [Compound 34]
true (1)
